Target: bradykinin 1 receptor (B1R) of the rat (Rattus norvegicus)
Construct: expressed in transfected cells; host or cells: CHO K1 cells
Sequence (P97583 whole entry): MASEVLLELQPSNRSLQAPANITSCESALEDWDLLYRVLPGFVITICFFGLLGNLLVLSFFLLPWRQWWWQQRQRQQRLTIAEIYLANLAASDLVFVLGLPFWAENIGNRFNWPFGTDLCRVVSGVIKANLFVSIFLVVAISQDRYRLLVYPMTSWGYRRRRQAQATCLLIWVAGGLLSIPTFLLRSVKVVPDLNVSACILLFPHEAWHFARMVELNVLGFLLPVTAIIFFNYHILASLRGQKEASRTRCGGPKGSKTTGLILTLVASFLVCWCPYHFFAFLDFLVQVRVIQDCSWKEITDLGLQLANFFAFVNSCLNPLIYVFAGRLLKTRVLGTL
Assay: Functional investigation on the rat bradykinin 1 receptor (B1R), Ca2+ FLIPR assay in CHO K1 rB1R cells
Type: cell-based
Settings: B1R antagonism rat; test substance 10 μM; Ca2+ FLIPR, CHO K1 rB1R cells

- COMPOUND: "COc1ccc(S(=O)(=O)N(C)CCOCC(=O)NCC2CCC(C(c3ccc(F)cc3)N(C)C)CC2)cc1 (stereo not drawn) [Example 508]"
  B1R Ant. r [10 μM] % Inhibition (%): 42
- COMPOUND: "COc1ccc(S(=O)(=O)N2CCCC2COCC(=O)NCCC2CCC(C(c3ccc(F)cc3)N(C)C)CC2)cc1 (stereo not drawn) [Example 409]"
  B1R Ant. r [10 μM] % Inhibition (%): 48
- COMPOUND: "COc1cc(C)c(S(=O)(=O)N2CCC(OCC(=O)NCC3CCC(C(c4ccc(Cl)cc4)N(C)C)CC3)C2)c(C)c1C (stereo not drawn) [Example 428]"
  B1R Ant. r [10 μM] % Inhibition (%): 8
